biological target: T1, HLA-B*0702 (human); assay: inhibition of 125I standard peptide binding to purified HLA
T1 construct: also called B7 supertype prototype molecule
relative binding ratio values for the binders below.

binder: VPLQRLRI (also called Her2/neu.94) [HER2/neu peptide, position 94, 8 amino acids]
relative binding ratio: 0.002 ratio to standard peptide

Q: Which relative binding ratio is listed for NPEGRYTF (also called Her2/neu.284) [HER2/neu peptide, position 284, 8 amino acids] ?
Result: -0.0002 ratio to standard peptide

Q: Which relative binding ratio is listed for QPQNGSVTCF (also called Her2/neu.568) [HER2/neu peptide, position 568, 10 amino acids] ?
Result: 0.0004 ratio to standard peptide

Q: Which relative binding ratio is listed for SPREGPLPAA (also called Her2/neu.1151) [HER2/neu peptide, position 1151, 10 amino acids] ?
Result: 0.46 ratio to standard peptide

Q: Which relative binding ratio is listed for QPHPPPAFSPA (also called Her2/neu.1206) [HER2/neu peptide, position 1206, 11 amino acids] ?
Result: 0.0003 ratio to standard peptide

Q: Which relative binding ratio is listed for TPSGAMPNQA (T0001 prints N at residue 706; also called Her2/neu.701) [HER2/neu peptide, position 701, 10 amino acids] ?
Result: 0.0001 ratio to standard peptide

Q: Which relative binding ratio is listed for SPLTSIISA (also called Her2/neu.649) [HER2/neu peptide, position 649, 9 amino acids] ?
Result: 0.015 ratio to standard peptide

Q: Which relative binding ratio is listed for SPGKNGVVKDV (also called Her2/neu.1174) [HER2/neu peptide, position 1174, 11 amino acids] ?
Result: -0.0002 ratio to standard peptide
